Data origin, for the record: patent US20100248390A1

# System: mouse odorant receptors (ORs)
# experimental.protocol: CRE-luciferase assay of odorant receptor activation (Dual-Glo, Hana3A cells, RTP1S), dose-response EC50
# Assay type: cell-based
# study.conditions: receptor MOR273-1
measurement.kind: log EC50 (Table 4 value), MOR273-1

Measured log EC50 (Table 4 value), MOR273-1 (mouse odorant receptors (ORs)), entry CCOC(=O)C(C)C [Ethyl isobutyrate] : −5.761

Measured log EC50 (Table 4 value), MOR273-1 (mouse odorant receptors (ORs)), entry O=C1CCOc2ccccc21 [4-Chromanone] : −4.201

Measured log EC50 (Table 4 value), MOR273-1 (mouse odorant receptors (ORs)), entry O=C1CCCCC1 [Cyclohexanone] : −3.208

Measured log EC50 (Table 4 value), MOR273-1 (mouse odorant receptors (ORs)), entry CCCCCC1=C(C)CCC1=O [Dihydroiasmone] : −4.441

====

# system.tested: human odorant receptors (ORs) (Homo sapiens, UniProt Q9Y3N9)
# Construct: OR open reading frames were amplified from genomic DNA; expressed in transfected cells; host or cells: Hana3A cells, co-transfected with RTP1S, CRE-luciferase and pRL-SV40
# Sequence (Q9Y3N9 whole entry): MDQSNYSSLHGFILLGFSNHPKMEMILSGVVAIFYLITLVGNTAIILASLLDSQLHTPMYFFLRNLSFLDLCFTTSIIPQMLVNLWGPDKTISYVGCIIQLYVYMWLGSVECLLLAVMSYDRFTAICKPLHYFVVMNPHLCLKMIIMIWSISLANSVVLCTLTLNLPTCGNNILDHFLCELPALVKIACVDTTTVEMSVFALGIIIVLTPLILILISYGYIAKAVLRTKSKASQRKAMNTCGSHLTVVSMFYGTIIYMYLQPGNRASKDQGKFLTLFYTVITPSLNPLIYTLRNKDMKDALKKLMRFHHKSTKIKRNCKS
# experimental.protocol: CRE-luciferase assay of odorant receptor activation (Dual-Glo, Hana3A cells, RTP1S), dose-response EC50
# Type: cell-based
For each entry below, report its EC50 value.
Give the quantity in µM, number only.

Recorded EC50 (compound C=CCOC(=O)Cc1ccccc1 [Allyl phenylacetate] ): 15.4

Recorded EC50 (compound O=C(c1ccccc1)c1ccccc1 [Benzophenone] ): 28.8

Recorded EC50 (compound CCC(=O)C(=O)CC [34-Hexanedione] ): 16.6

Recorded EC50 (compound CCCCCCCCCCO [1-Decanol] ): 43.2

====

# system.tested: human odorant receptors (ORs) (Homo sapiens, UniProt Q9Y3N9)
# Construct: OR open reading frames were amplified from genomic DNA; expressed in transfected cells; host or cells: Hana3A cells, co-transfected with RTP1S, CRE-luciferase and pRL-SV40
# experimental.protocol: CRE-luciferase assay of odorant receptor activation (Dual-Glo, Hana3A cells, RTP1S), dose-response EC50
# Type: cell-based
# study.conditions: receptor OR2W1; read-out: log EC50 (Table 4 value), OR2W1 (converted)
Structures can show the parent of a compound that is named as a salt.
Friendly reminder: EC50 below 40 µM is Yes, at or above is No.

Is 40 µM strictly greater than the compound's reported EC50? compound: O=C1CCOc2ccccc21
No

Is 40 µM strictly greater than the compound's reported EC50? compound: O=c1ccc2ccccc2o1
No

Is 40 µM strictly greater than the compound's reported EC50? compound: CCCCCC(=O)CC
Yes

Is 40 µM strictly greater than the compound's reported EC50? compound: CCCCOC=O [Butyl formate]
Yes

Is 40 µM strictly greater than the compound's reported EC50? compound: CC(=O)c1ccccc1
No

Is 40 µM strictly greater than the compound's reported EC50? compound: CCCCCCCCCC(=O)O
No

Is 40 µM strictly greater than the compound's reported EC50? compound: CC(C)=CCC/C(C)=C/CO
Yes

Is 40 µM strictly greater than the compound's reported EC50? compound: CC(=O)OCc1ccccc1 [Benzyl acetate]
Yes

====

# system.tested: human odorant receptors (ORs) (Homo sapiens, UniProt Q9Y3N9)
# Construct: OR open reading frames were amplified from genomic DNA; expressed in transfected cells; host or cells: Hana3A cells, co-transfected with RTP1S, CRE-luciferase and pRL-SV40
# experimental.protocol: CRE-luciferase assay of odorant receptor activation (Dual-Glo, Hana3A cells, RTP1S), dose-response EC50
# Format: cell-based
# study.conditions: receptor OR2W1; 0 = no response; read-out: log EC50, OR2W1 (converted)
measurement.kind: EC50 (µM)
Give the quantity in µM, number only.

Recorded EC50 (molecule CCCCC(=O)CC ): 33.3

Recorded EC50 (molecule CCCCCCCCO ): 7.45

Recorded EC50 (molecule CCCCCCCO ): 14.8

Recorded EC50 (molecule CCCC(=O)C(C)=O ): 434

Recorded EC50 (molecule CCCCC(C)=O ): 73.3

Recorded EC50 (molecule CCCCCCC(C)=O ): 39.9

Recorded EC50 (molecule CC(C)=CCCC(C)CCO (single isomer, unassigned; (-)) [(−)-b-C ? inedol] ): 7.8

Recorded EC50 (molecule CCCCCCO ): 14.1

Recorded EC50 (molecule CCCCCCCCCO ): 23.4

Recorded EC50 (molecule CCCCCC(C)=O ): 7.21

Recorded EC50 (molecule CCCCCCCC(C)=O ): 19.9
